The origin of these recorded values is patent US10316021B2.

- target-or-system: human kappa opioid receptor (hKOR) (Homo sapiens)
- Construct: expressed in transfected cells; host or cells: CHO cells
- Sequence (P41145 whole entry): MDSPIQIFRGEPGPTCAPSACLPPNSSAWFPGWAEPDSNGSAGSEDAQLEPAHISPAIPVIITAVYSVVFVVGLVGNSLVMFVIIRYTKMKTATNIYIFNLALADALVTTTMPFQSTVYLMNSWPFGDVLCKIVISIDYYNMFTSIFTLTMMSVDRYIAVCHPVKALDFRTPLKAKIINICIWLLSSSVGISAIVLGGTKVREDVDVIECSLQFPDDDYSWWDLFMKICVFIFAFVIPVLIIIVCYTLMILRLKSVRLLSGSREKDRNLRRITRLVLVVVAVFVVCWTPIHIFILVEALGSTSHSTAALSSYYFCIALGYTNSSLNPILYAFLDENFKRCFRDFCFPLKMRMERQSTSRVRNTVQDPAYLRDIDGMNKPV
- method-description: Kappa radioligand binding assay ([3H]diprenorphine, CHO cell membranes)
- stated-conditions: radioligand binding, [3H]diprenorphine; read-out: hKOR Ki
pKi: −log10 of the molar value.
assay-readout: pKi

{"molecule": "COc1nn(C)cc1C1CCCN1Cc1ccc(Oc2ccc(C(N)=O)c(O)c2)cc1 (single isomer, unassigned) [enantiomer of Example 33]", "pKi": 7.54}

(A) COc1nn(C)cc1C1COCCN1Cc1ccc(Oc2ccc(C(N)=O)cc2)c(F)c1 (single isomer, unassigned) [enantiomer of Example 22]
(B) Cc1c(C2CCCN2Cc2ccc(Oc3ccc(C(N)=O)cc3F)cc2)cnn1C (single isomer, unassigned) [enantiomer of Example 35]
Query :: Looking at recorded values for pKi, does A or B come in lower? The response must carry the label of the picked entry.
Result :: A

----------
- target-or-system: human mu opioid receptor (hMOR) (Homo sapiens)
- Construct: expressed in transfected cells; host or cells: CHO cells
- Sequence (P35372 whole entry): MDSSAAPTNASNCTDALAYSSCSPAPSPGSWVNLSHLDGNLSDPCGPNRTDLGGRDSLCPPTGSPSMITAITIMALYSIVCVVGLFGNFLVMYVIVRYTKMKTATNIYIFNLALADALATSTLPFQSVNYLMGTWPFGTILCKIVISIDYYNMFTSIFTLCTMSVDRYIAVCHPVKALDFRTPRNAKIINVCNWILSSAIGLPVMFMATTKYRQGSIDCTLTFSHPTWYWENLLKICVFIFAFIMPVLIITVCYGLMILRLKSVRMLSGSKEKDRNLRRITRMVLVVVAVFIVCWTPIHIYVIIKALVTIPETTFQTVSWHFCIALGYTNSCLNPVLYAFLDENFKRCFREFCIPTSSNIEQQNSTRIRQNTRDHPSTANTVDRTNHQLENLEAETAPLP
- method-description: Mu radioligand binding assay ([3H]diprenorphine, CHO cell membranes)
- stated-conditions: radioligand binding, [3H]diprenorphine; read-out: hMOR Ki
pKi: −log10 of the molar value.
assay-readout: pKi

{"molecule": "Cc1c(C2CCCN2Cc2ccc(Oc3ccc(C(N)=O)cc3F)cc2)cnn1C (single isomer, unassigned) [enantiomer of Example 35]", "pKi": 6.61}

(P) COc1nn(C)cc1C1CCCN1Cc1ccc(Oc2ccc(C(N)=O)cc2)c(F)c1 (single isomer, unassigned) [enantiomer of Example 32]
(Q) Cc1nn(C)nc1C1CCCN1Cc1ccc(Oc2ccc(C(N)=O)cc2)cc1 (single isomer, unassigned) [enantiomer of Example 38]
(R) COc1nn(C)cc1C1CCCCN1Cc1ccc(Oc2ccc(C(N)=O)cc2)cc1 (single isomer, unassigned) [enantiomer of Example 21]
Query :: Please order the records by their reported pKi, lowest number first. Write the labels out in the order the request specifies.
Result :: Q, R, P

----------
- target-or-system: human kappa opioid receptor (hKOR) (Homo sapiens)
- Construct: expressed in transfected cells; host or cells: CHO cells
- method-description: Kappa radioligand binding assay ([3H]diprenorphine, CHO cell membranes)

{"compound": "Cc1cc(C2CCCN2Cc2ccc(Oc3ccc(C(N)=O)cc3F)cc2)on1 (stereo not shown) [Example 42]", "KOR potency, in words": "low KOR potency"}
{"compound": "Cc1cc(C2CCCN2Cc2ccc(Oc3ccc(C(N)=O)cc3F)cc2)no1 (stereo not shown) [Example 40]", "KOR potency, in words": "low KOR potency"}

----------
- method-description: Shake flask Log D (SFLogD) determination, pH 7.4
- Assay type: physicochemical
- stated-conditions: shake flask, octan-1-ol / 0.1 M sodium phosphate buffer
assay-readout: logD

Worked examples, 7 compounds total:
{"compound": "Cc1cc(C)cc([C@@H]2CCCN2Cc2ccc(Oc3ccc(C(N)=O)cc3F)cc2)c1 [Comparator E, reference compound]", "assay-readout": "logD", "recorded-value": 4.6}
{"compound": "NC(=O)c1ccc(Oc2ccc(CN3CCCCC3c3ccccc3)cc2)nc1 (stereo not drawn)", "assay-readout": "logD", "recorded-value": 2.7}
{"compound": "NC(=O)c1ccc(Oc2ccc(CN3CCC(c4ccccc4)C3)cc2)nc1 (stereo not drawn) [Comparator A, reference compound]", "assay-readout": "logD", "recorded-value": 1.8}
{"compound": "COc1nn(C)cc1[C@@H]1CCCN1Cc1ccc(Oc2ccc(C(N)=O)cc2)cc1 (single isomer, unassigned)", "assay-readout": "logD", "recorded-value": 1.4}
{"compound": "NC(=O)c1ccc(Oc2ccc(CN3CCCC3c3ccccc3)cc2)nc1 (stereo not drawn)", "assay-readout": "logD", "recorded-value": 2.3}
{"compound": "NC(=O)c1ccc(Oc2ccc(CN3CCC[C@H]3c3cccc(F)c3)cc2)c(F)c1", "assay-readout": "logD", "recorded-value": 3.7}
{"compound": "Cc1nn(C)cc1[C@@H]1CCCN1Cc1ccc(Oc2ccc(C(N)=O)cc2)cc1", "assay-readout": "logD", "recorded-value": 1.9}

(1) NC(=O)c1ccc(Oc2ccc(CN3CCCC3c3cccnc3)cc2)c(Cl)c1 (stereo not drawn)
(2) COc1nn(C)cc1C1CCCN1Cc1ccc(Oc2ccc(C(N)=O)cc2F)cc1 (single isomer, unassigned; (-))
Query :: Looking at recorded values for logD, does 1 or 2 come in lower? The response must carry the label of the picked entry.
Result :: 2
(2: 1.9, 1: 3.2)
